Where these numbers come from: patent US20250333496A1

target: T1, human IL-6 (mature hIL-6) (human, UniProt P05231 30-212); assay: SPR (format not stated)
T1 construct: also called the antigen
T1 sequence (P05231 30-212): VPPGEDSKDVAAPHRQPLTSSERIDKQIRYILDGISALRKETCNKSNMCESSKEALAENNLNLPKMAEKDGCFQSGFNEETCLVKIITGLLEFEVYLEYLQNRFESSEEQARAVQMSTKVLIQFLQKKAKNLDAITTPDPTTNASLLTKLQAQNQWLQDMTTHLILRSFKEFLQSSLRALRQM
Recorded pKd by entry
Just so you know, pKd here is -log10 of the concentration in molar units; reply with that number alone.

binder: Polypeptide_16 (VHH, VHH_2.16 with C-terminal His tag extension E1; also called [VHH_2.16]-E1) VHH: EVQLVESGGGLVQPGGSLSLSCTASGRTFSSYAMGWFRQAPGKEREFVADIGENADNRWYAHSVKGRFTISRDNAKNTVYLQMNSLKPEDTAVYYCAADRYGVGGGAQGYYDSWGQGTQVTVSS
pKd: 12.00

Now look at this entry.
Query: So what does the record say about pKd for Polypeptide_9 (VHH, VHH_2.9 with C-terminal His tag extension E1; also called [VHH_2.9]-E1) VHH: QVQLVESGGGLVQPGGSLRLSCAASGFTFSNYWMYWVRQAPGKGLEWVSGIDTRGSTPDYADSVKGRFTISRDNAKSTFYLQMNSLRPEDTAVYYCATDTPRSFRLYHYVPLGQGTQVTVSS ?
Reply: 9.04
